- Tested on: Plasmodium berghei
- test.method.notes: Screen against P. berghei liver stage (PbLuc), transformed with Luciferase, at 10uM
- Format: functional, HepG2
- condition: tested at 10 uM
In all, about 69,000 compounds went through this assay and about 8,600 (12%) showed an effect of 50% or more. This excerpt belongs to a sample that is enriched for strong results.
Quick reference: INHIBITION of the listed items.

{"columns": ["molecule", "system.tested", "INHIBITION"],
 "data": [
  ["Cc1cccc(C(=O)NC2CCN(c3cnn(C)c3)C2=O)c1C (centres undefined)", "Plasmodium berghei", "30.5%"],
  ["Cn1nc(Cn2ccnc2)c2c1CN(c1nccs1)C2", "Plasmodium berghei", "3.88%"],
  ["CCOCCC(=O)N1CCCC(c2cc(C(F)(F)F)[nH]n2)C1 (centres undefined)", "Plasmodium berghei", "7.97%"],
  ["CC(C)c1noc(CN2CCOCC2C)n1 (centres undefined)", "Plasmodium berghei", "17.5%"],
  ["CN(CCO)c1ncc(-c2ccc(NC(=O)[C@@H]3CCCCN3)cc2)cn1", "Plasmodium berghei", "-4.82%"],
  ["CC1COCCN1Cc1noc(C(C)(C)C)n1 (centres undefined)", "Plasmodium berghei", "38.7%"],
  ["O=C(c1ccc[nH]1)N1CCCC(c2cc(C(F)(F)F)[nH]n2)C1 (centres undefined)", "Plasmodium berghei", "54.4%"],
  ["CC(Cn1cccn1)NCc1nc(-c2ccsc2)no1 (centres undefined)", "Plasmodium berghei", "1.78%"],
  ["NC(=O)CCC1CCCN(Cc2cnc(N3CCCCC3)nc2)C1 (centres undefined)", "Plasmodium berghei", "67.8%"],
  ["CC(NC(=O)NCc1ccccn1)c1cccs1 (centres undefined)", "Plasmodium berghei", "-5.26%"],
  ["Cn1cc(CC(=O)N2CCCC(c3cc(C(F)(F)F)[nH]n3)C2)cn1 (centres undefined)", "Plasmodium berghei", "7.97%"],
  ["CC(C)Cc1noc(CN2CCOCC2)n1", "Plasmodium berghei", "1.48%"],
  ["CCc1cnc(N2CCCC(CCC(N)=O)C2)nc1 (centres undefined)", "Plasmodium berghei", "17.9%"],
  ["O=C(c1cc[nH]n1)N1CCCC(c2cc(C(F)(F)F)[nH]n2)C1 (centres undefined)", "Plasmodium berghei", "25.1%"],
  ["CCN1CC2(CCOCC2)c2cc(NS(=O)(=O)CC)ccc21", "Plasmodium berghei", "38.5%"],
  ["COCCCN(Cc1ccccn1)Cc1ccnn1C1CCCCO1 (centres undefined)", "Plasmodium berghei", "34.1%"],
  ["Cc1ccccc1C(=O)NC1CCN(c2cnn(C)c2)C1=O (centres undefined)", "Plasmodium berghei", "11.7%"],
  ["CC(O)CN1CCN(C(=O)c2cc3ccccc3c(=O)[nH]2)CC1 (centres undefined)", "Plasmodium berghei", "-3.95%"],
  ["COc1ccc2c(c1)C(=O)NC1(CC2)CCN(Cc2ccccc2)C1 (centres undefined)", "Plasmodium berghei", "41.3%"],
  ["CCc1nnc2n1CCN(C(C(N)=O)c1ccc(F)cc1)C2 (centres undefined)", "Plasmodium berghei", "1.45%"],
  ["Cc1nc(C(=O)N2CCCC(c3cc(C(F)(F)F)[nH]n3)C2)c[nH]1 (centres undefined)", "Plasmodium berghei", "33.8%"],
  ["CCc1c(C(=O)N2CCN(C)[C@@H]3CS(=O)(=O)C[C@@H]32)[nH]c2ccccc12", "Plasmodium berghei", "60.1%"],
  ["Cc1cc(C)c(CNC(=O)NCc2ccncc2)c(=O)[nH]1", "Plasmodium berghei", "37.9%"],
  ["CCC(=O)Nc1ccc2c(c1)C1(CCOCC1)CN2CCOC", "Plasmodium berghei", "55.7%"],
  ["CC1CCCCN1CCNC(=O)c1scnc1Cl (centres undefined)", "Plasmodium berghei", "0.411%"],
  ["CC(=O)c1ccc(N2CCCC(CO)(CCOc3ccccc3)C2)nc1 (centres undefined)", "Plasmodium berghei", "70.1%"],
  ["O=C(Cc1cccnc1)N1CCCC(c2cc(C(F)(F)F)[nH]n2)C1 (centres undefined)", "Plasmodium berghei", "50.8%"],
  ["c1cncc(COCC2C[C@@H]3OCCN(Cc4cccnc4)[C@H]3C2)c1 (some centres undefined)", "Plasmodium berghei", "23.6%"],
  ["COCCN1CC(C(=O)Nc2ccc3c(c2)CCC(=O)N3C)CC1=O (centres undefined)", "Plasmodium berghei", "-22.6%"],
  ["CC1(C(=O)N2CCOCC2)CNCCO1 (centres undefined)", "Plasmodium berghei", "6.9%"],
  ["O=C(c1ccsc1)N1CCCC(c2cc(C(F)(F)F)[nH]n2)C1 (centres undefined)", "Plasmodium berghei", "57.2%"],
  ["O=C(C1CCC1)N1C[C@H]2CC[C@@H](C1)N(S(=O)(=O)c1cccnc1)C2", "Plasmodium berghei", "-70.7%"],
  ["CCCN(CC(=O)N(C)C)C(=O)c1ccc(-c2nc(C)cs2)cc1", "Plasmodium berghei", "18.9%"],
  ["CC(Cn1cccn1)NCc1nc(-c2cccnc2)no1 (centres undefined)", "Plasmodium berghei", "86.8%"],
  ["CC1CCCCN1Cc1nc(Cc2ccccc2)no1 (centres undefined)", "Plasmodium berghei", "20.2%"],
  ["Cc1cc(C(=O)N2CCCC(c3cc(C(F)(F)F)[nH]n3)C2)[nH]n1 (centres undefined)", "Plasmodium berghei", "29.7%"],
  ["CC(=O)c1ccc(N2CCC(CO)(CCOc3ccccc3)CC2)nc1", "Plasmodium berghei", "95.1%"],
  ["O=C(c1nc(=O)[nH][nH]1)N1CCCC(c2cc(C(F)(F)F)[nH]n2)C1 (centres undefined)", "Plasmodium berghei", "29.1%"],
  ["COCCN1CC2(CCOCC2)c2cc(NC(=O)C3CC=CC3)ccc21", "Plasmodium berghei", "76.5%"]
]}
